// data source = patent US20260184693A1

Biological target: human SLC6A19 (Homo sapiens, UniProt Q695T7)
Construct: expressed in transfected cells
Sequence (Q695T7 1-634): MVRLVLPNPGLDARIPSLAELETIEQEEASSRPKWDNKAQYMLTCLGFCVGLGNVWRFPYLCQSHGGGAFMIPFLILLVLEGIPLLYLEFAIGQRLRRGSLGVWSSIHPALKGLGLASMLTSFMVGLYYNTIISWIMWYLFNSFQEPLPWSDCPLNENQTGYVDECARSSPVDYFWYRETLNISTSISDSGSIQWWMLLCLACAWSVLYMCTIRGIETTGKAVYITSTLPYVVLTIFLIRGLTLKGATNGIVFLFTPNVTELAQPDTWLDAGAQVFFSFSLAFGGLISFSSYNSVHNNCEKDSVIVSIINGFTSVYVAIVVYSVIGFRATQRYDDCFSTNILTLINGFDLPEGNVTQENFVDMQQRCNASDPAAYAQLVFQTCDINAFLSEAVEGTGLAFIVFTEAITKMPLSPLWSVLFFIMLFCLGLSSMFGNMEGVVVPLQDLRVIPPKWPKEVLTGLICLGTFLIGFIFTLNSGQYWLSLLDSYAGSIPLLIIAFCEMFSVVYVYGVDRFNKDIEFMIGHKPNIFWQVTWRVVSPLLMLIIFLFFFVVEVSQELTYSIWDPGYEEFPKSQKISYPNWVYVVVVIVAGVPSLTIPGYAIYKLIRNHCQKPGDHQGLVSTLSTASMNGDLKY
Sequence (Q9HBJ8 15-222 partner): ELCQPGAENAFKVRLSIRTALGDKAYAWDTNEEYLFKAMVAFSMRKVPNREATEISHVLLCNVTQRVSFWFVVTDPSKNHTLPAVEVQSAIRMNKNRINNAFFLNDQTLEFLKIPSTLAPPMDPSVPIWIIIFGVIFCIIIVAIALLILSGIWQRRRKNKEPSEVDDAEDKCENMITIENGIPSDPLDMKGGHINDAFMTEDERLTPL
Test: Example B2: 13C6,15N-isoleucine uptake, RapidFire mass spectrometry, in CHO cells with doxycycline-inducible expression of human SLC6A19 and TMEM27
Type: cell-based
Details: read-out: SLC6A19_RapidFire Uptake Assay IC50
ASSAY_METRIC: IC50 (nM)

P = CC(=O)N1CCC[C@@H](N(C)C(=O)NCc2cc3cc(C)c(Cl)cc3[nH]2)C1 [Compound 157]
Q = CN(C(=O)NCc1cc2cc(Cl)ccc2[nH]1)[C@@H]1CCCN(C(=O)c2ccn(C)n2)C1 [Compound 54]
Enquiry: Of P and Q , which carries the smaller reported IC50 figure? // return label of chosen record
Return: P
(P: 194 nM, Q: 401 nM)

###

Molecular target: human SLC6A19 (Homo sapiens)
Construct: expressed in transfected cells
Assay: Example B2: 13C6,15N-isoleucine uptake, RapidFire mass spectrometry, in CHO cells with doxycycline-inducible expression of human SLC6A19 and TMEM27
Format: cell-based
Details: read-out: SLC6A19_RapidFire Uptake Assay IC50
Experimental: Assay ready vials of CHO cells with doxycycline inducible expression of human SLC6A19 and TMEM27 were thawed, plated in T175 flasks containing DMEM/F12 media, 10% FBS, 100 Penicillin-Streptomycin, 1× UltraGlutamate, 1 mM Sodium Pyruvate, Sodium Bicarbonate (7.5 mL of 7.5% solution in 500 mL media final), […] Blasticidin, 150 µg/mL Hygromycin B Gold, and 500 µg/mL G418, and incubated (humidified, 37° C. with 500 CO2) for 48 hours. […] Resuspended cells were counted using a Vi-Cell. […]
ASSAY_METRIC: IC50 (nM)

The examples below pair each entry with its known result.
CN(C(=O)NCc1cc2cc(Cl)ccc2[nH]1)[C@@H]1CCCN(C(=O)CCNC(N)=O)C1
897
CN(C(=O)NCc1cc2cc(Cl)ccc2[nH]1)[C@@H]1CCCN(C(=O)Cc2cnccn2)C1
1350

P = CC(=O)N1CCC[C@@H](N(C)C(=O)NCc2cc3ccc(OCc4ccon4)cc3[nH]2)C1
Q = CN(C(=O)NCc1cc2cc(Cl)ccc2[nH]1)[C@@H]1CCCN(C(=O)c2ccn3ccnc3c2)C1
Enquiry: Recorded IC50 values differ for P and Q ; which one is higher? Field: selected label. Fill in the label of the entry you choose.
Return: Q
(Q: 1000 nM, P: 670 nM)
